Where these numbers come from: patent US9072698B2

# Test system: HCT15 (colon adenocarcinoma)
# test-name: In vitro cytotoxicity, sulforhodamine B (SRB) method, HCT15
# Type: cell-based
# test-parameters: Homo sapiens; HCT-15, SRB method; read-out: cytotoxicity (ED50) HCT-15
Would you kindly list IC50 for each of these compounds?
All answers are understood in µg/mL, so give the number only.

[in] IC50 for O=C(/C=C/c1ccc(O)cc1O)c1ccccc1NS(=O)(=O)c1ccc(O)cc1 ?
[out] 11

[in] IC50 for O=C(/C=C/c1cc(O)ccc1O)c1ccccc1NS(=O)(=O)c1ccc(O)cc1 ?
[out] 9

[in] IC50 for O=C(/C=C/c1ccccc1O)c1ccccc1NS(=O)(=O)c1cccc(O)c1 ?
[out] 35

[in] IC50 for O=C(/C=C/c1ccc(O)c(O)c1)c1ccc(NS(=O)(=O)c2ccccc2)cc1 ?
[out] 14

[in] IC50 for CS(=O)(=O)Oc1ccc(C(=O)/C=C/c2ccc(O)cc2)cc1 [Compound 41, 4′-(methanesulfonate)-4-hydroxychalcone] ?
[out] 42

[in] IC50 for O=C(/C=C/c1cccc(O)c1)c1ccc(NS(=O)(=O)c2cccc(O)c2)cc1 ?
[out] 37

[in] IC50 for O=C(/C=C/c1cc(O)ccc1O)c1ccc(OS(=O)(=O)c2cccc(O)c2)cc1 ?
[out] 11

[in] IC50 for O=C(/C=C/c1ccc(O)cc1)c1cccc(NS(=O)(=O)c2ccc(O)cc2)c1 ?
[out] 24

====

Would you kindly list IC50 for each of these compounds?
# System: HCT15 (colon adenocarcinoma)
# test-name: In vitro cytotoxicity, sulforhodamine B (SRB) method, HCT15
# Type: cell-based
# test-parameters: Homo sapiens; HCT-15, SRB method; read-out: cytotoxicity (ED50) HCT-15
All answers are understood in µg/mL, so give the number only.

[in] Report IC50 for Nc1ccc(S(=O)(=O)Oc2ccc(C(=O)/C=C/c3ccc(O)cc3)cc2)cc1 tested on HCT15 (colon adenocarcinoma).
[out] 39

[in] Report IC50 for Cc1ccc(S(=O)(=O)Nc2ccccc2C(=O)/C=C/c2ccc(O)c(O)c2)cc1 tested on HCT15 (colon adenocarcinoma).
[out] 8

[in] Report IC50 for O=C(/C=C/c1ccc(O)cc1)c1ccc(NS(=O)(=O)c2ccccc2F)cc1 tested on HCT15 (colon adenocarcinoma).
[out] 22

[in] Report IC50 for O=C(/C=C/c1ccccc1O)c1ccc(NS(=O)(=O)c2cccc(O)c2)cc1 tested on HCT15 (colon adenocarcinoma).
[out] 32

====

Would you kindly list log10 of IC50 for each of these molecules?
# Tested on: HCT15 (colon adenocarcinoma)
# test-name: In vitro cytotoxicity, sulforhodamine B (SRB) method, HCT15
# Type: cell-based
# test-parameters: Homo sapiens; HCT-15, SRB method; read-out: cytotoxicity (ED50) HCT-15
Note the log scale: values are log10 of IC50 expressed in mg/L.

[in] log10 of IC50 for O=C(/C=C/c1ccc(O)cc1)c1ccc(OS(=O)(=O)c2ccc(O)cc2)cc1 ?
[out] 1.51

[in] log10 of IC50 for O=C(/C=C/c1ccc(O)c(O)c1)c1cccc(NS(=O)(=O)c2ccc(O)cc2)c1 ?
[out] 0.85

[in] log10 of IC50 for O=C(/C=C/c1ccccc1O)c1cccc(NS(=O)(=O)c2cccc(O)c2)c1 ?
[out] 1.60

[in] log10 of IC50 for O=C(/C=C/c1cccc(O)c1O)c1ccc(OS(=O)(=O)c2ccc(O)cc2)cc1 ?
[out] 0.85

[in] log10 of IC50 for O=C(/C=C/c1ccc(O)cc1)c1ccc(OS(=O)(=O)c2ccc(F)cc2)cc1 ?
[out] 1.68

[in] log10 of IC50 for O=C(/C=C/c1ccc(O)cc1)c1ccc(NS(=O)(=O)c2cccc(O)c2)cc1 ?
[out] 1.52

[in] log10 of IC50 for O=C(/C=C/c1ccc(O)c(O)c1)c1cccc(NS(=O)(=O)c2cccc(O)c2)c1 ?
[out] 0.60

[in] log10 of IC50 for O=C(/C=C/c1ccc(O)cc1)c1ccc(OS(=O)(=O)c2cccc(F)c2)cc1 ?
[out] 1.53
